Target: T1, human TL1A extracellular domain with N-terminal HIS and FLAG tag (human) (UniProt O95150)
T1 sequence: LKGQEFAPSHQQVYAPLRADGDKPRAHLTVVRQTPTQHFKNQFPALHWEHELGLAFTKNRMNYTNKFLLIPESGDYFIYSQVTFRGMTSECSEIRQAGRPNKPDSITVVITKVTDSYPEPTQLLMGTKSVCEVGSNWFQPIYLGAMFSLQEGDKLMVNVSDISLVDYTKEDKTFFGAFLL
Assay: cell-based or functional assay
ASSAY ENDPOINT: Fold improvement over 320-179, TL1A induced caspase potency assay in TF-1 cells
// unit must come after the numeric part

Field: example entries. Status: answers known.
Data point: 320-229 (antibody, human IgG1, name in Kabat numbering, V domains shown, human IgG1, lambda) VH: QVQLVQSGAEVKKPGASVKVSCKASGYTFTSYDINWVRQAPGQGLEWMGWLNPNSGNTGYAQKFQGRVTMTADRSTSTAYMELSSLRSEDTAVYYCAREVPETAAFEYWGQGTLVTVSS VL: QSVLTQPPSVSGAPGQRVTISCTSSSKDIGAGLGVHWYQQLPGTAPKLLIEGYYNRPSGVPDRFSGSKSGTSASLTITGLLPEDEGDYYCQSYDGTLSALFGGGTKLTVLG ; Fold improvement over 320-179, TL1A induced caspase potency assay in TF-1 cells = 2 fold

binder 320-202 (antibody, human IgG1, name in Kabat numbering, V domains shown, human IgG1, lambda) VH: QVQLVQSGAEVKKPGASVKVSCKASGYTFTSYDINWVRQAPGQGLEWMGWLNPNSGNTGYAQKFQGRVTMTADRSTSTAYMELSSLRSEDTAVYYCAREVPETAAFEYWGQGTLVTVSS VL: QSVLTQPPSVSGAPGQRVTISCTQSSSDIGAGLGVHWYQQLPGTAPKLLIEGYYNRPSGVPDRFSGSKSGTSASLTITGLLPEDEGDYYCQSYDGTLSALFGGGTKLTVLG , Fold improvement over 320-179, TL1A induced caspase potency assay in TF-1 cells observed: 1 fold

So, 320-318 (antibody, human IgG1, name in Kabat numbering, V domains shown, human IgG1, lambda) VH: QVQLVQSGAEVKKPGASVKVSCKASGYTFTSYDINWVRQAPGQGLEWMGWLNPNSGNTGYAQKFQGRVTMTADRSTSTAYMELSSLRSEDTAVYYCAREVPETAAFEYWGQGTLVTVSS VL: QSVLTQPPSVSGAPGQRVTISCTSSSSDIGAGLGVHWYQQLPGTAPKLLIEGYYNRPSGVPDRFSGSKSGTSASLTITGLLPEDEGDYYCQAYDGTLSALFGGGTKLTVLG ? Its Fold improvement over 320-179, TL1A induced caspase potency assay in TF-1 cells was 3 fold

Documented Fold improvement over 320-179, TL1A induced caspase potency assay in TF-1 cells of 320-198 (antibody, human IgG1, name in Kabat numbering, V domains shown, human IgG1, lambda) VH: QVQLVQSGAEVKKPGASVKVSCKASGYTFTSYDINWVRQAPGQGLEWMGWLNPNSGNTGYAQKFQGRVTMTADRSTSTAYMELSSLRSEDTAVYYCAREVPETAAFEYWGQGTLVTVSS VL: QSVLTQPPSVSGAPGQRVTISCLSSSSDIGAGLGVHWYQQLPGTAPKLLIEGYYNRPSGVPDRFSGSKSGTSASLTITGLLPEDEGDYYCQSYDGTLSALFGGGTKLTVLG : 1 fold

Field Fold improvement over 320-179, TL1A induced caspase potency assay in TF-1 cells (entry 320-205 (antibody, human IgG1, name in Kabat numbering, V domains shown, human IgG1, lambda) VH: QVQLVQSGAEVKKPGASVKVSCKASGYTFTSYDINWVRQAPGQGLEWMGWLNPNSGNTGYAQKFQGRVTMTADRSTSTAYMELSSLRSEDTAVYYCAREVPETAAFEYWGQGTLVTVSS VL: QSVLTQPPSVSGAPGQRVTISCTKSSSDIGAGLGVHWYQQLPGTAPKLLIEGYYNRPSGVPDRFSGSKSGTSASLTITGLLPEDEGDYYCQSYDGTLSALFGGGTKLTVLG ) reads 2 fold

Noted for 320-297 (antibody, human IgG1, name in Kabat numbering, V domains shown, human IgG1, lambda) VH: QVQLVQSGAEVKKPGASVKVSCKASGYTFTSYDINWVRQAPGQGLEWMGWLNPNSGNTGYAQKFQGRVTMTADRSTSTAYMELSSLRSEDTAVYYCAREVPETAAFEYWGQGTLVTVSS VL: QSVLTQPPSVSGAPGQRVTISCTSSSSDIGAGLGHHWYQQLPGTAPKLLIEGYYNRPSGVPDRFSGSKSGTSASLTITGLLPEDEGDYYCQSYDGTLSALFGGGTKLTVLG : its Fold improvement over 320-179, TL1A induced caspase potency assay in TF-1 cells reads 4 fold

Report Fold improvement over 320-179, TL1A induced caspase potency assay in TF-1 cells for every entry below.
1. 320-313 (antibody, human IgG1, name in Kabat numbering, V domains shown, human IgG1, lambda) VH: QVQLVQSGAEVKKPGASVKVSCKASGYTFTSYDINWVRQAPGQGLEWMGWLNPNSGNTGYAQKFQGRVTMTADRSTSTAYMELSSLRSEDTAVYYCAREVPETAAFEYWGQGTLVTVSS VL: QSVLTQPPSVSGAPGQRVTISCTSSSSDIGAGLGVHWYQQLPGTAPKLLIEGYYNRPSGVPDRFSGSKSGTSASLTITGLLPEDEGDYYCHSYDGTLSALFGGGTKLTVLG
2. 320-213 (antibody, human IgG1, name in Kabat numbering, V domains shown, human IgG1, lambda) VH: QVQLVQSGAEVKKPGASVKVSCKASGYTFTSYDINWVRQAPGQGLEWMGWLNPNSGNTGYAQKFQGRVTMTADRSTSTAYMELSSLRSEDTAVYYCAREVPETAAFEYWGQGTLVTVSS VL: QSVLTQPPSVSGAPGQRVTISCTSKSSDIGAGLGVHWYQQLPGTAPKLLIEGYYNRPSGVPDRFSGSKSGTSASLTITGLLPEDEGDYYCQSYDGTLSALFGGGTKLTVLG

2 fold
0 fold
